B1: ESRRG (parent)
chain: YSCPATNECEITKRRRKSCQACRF

Variants of: B1
Assay: protein stability index of a GFP-peptide fusion (GPS, HEK-293T) (PSI 1-6); higher = more stable;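 further: lentivirally expressed fusions sorted by FACS into six bins by GFP to DsRed ratio, PSI derived from sequencing read proportions per bin multiplied by bin number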
Details: c terminus: a fixed tail appended
So basically: protein stability index at 3 or higher? That is true. Lower than 3? That is false.

Hello, I need to know if `S18D` has measured protein stability index not below 3. Thanks! true

Hello, I need to know if `P4N` has measured protein stability index not below 3. Thanks! true

Hello, I need to know if `I11E` has measured protein stability index not below 3. Thanks! true

Hello, I need to know if `T12K` has measured protein stability index not below 3. Thanks! true

Hello, I need to know if `S18F` has measured protein stability index not below 3. Thanks! false

Hello, I need to know if `T6V` has measured protein stability index not below 3. Thanks! true

Hello, I need to know if `T12D` has measured protein stability index not below 3. Thanks! true

Hello, I need to know if `C22D` has measured protein stability index not below 3. Thanks! true

Hello, I need to know if `Q20I` has measured protein stability index not below 3. Thanks! false

Hello, I need to know if `R15D` has measured protein stability index not below 3. Thanks! true

Hello, I need to know if `F24R` has measured protein stability index not below 3. Thanks! true

Hello, I need to know if `K17N` has measured protein stability index not below 3. Thanks! true

Hello, I need to know if `P4T` has measured protein stability index not below 3. Thanks! true

Hello, I need to know if `R23C` has measured protein stability index not below 3. Thanks! true

Hello, I need to know if `R16P` has measured protein stability index not below 3. Thanks! true

Hello, I need to know if `P4Y` has measured protein stability index not below 3. Thanks! false

Hello, I need to know if `E10A` has measured protein stability index not below 3. Thanks! true
